test: self-splicing fitness, log relative to wild type (ln ratio); higher = more splicing; Tetrahymena group I intron in knt gene, E. coli kanamycin selection, DiMSum; sequences stand for … in CUCUCU…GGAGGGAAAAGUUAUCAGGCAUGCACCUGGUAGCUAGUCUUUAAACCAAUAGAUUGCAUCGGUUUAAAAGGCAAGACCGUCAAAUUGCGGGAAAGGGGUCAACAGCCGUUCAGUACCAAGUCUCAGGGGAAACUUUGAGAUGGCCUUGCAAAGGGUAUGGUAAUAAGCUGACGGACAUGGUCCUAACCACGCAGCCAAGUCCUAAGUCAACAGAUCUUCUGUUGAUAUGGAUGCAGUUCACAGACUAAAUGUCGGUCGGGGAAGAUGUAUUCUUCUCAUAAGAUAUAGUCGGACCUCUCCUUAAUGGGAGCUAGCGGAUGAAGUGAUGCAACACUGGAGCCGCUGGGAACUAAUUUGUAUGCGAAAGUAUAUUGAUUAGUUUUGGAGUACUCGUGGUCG; conditions: 37 °C;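 note: selection with 25 µg/mL kanamycin versus none on LB agar overnight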
Kindly return t if reported self-splicing fitness (ln) is no lower than -2; return f if it is lower.

residueSequence	labelClass
CAGGAGCAAUAUUACGUCGC	t
GACUAGCAAUAUUACGCAGU	f
AACCAGCAAUAUUACGCGAG	t
AGCUAGCAAUAUUACGGGAA	t
GCCAAGCAAUAUUACGUCCU	t

Lookup: Given the entry CCUCAGCAAUAUUACGACAA , answer whether its self-splicing fitness (ln) meets or surpasses -2.
Found: f

Lookup: Is it the case that UUCCAGCAAUAUUACGACAG has self-splicing fitness (ln) reaching or exceeding -2?
Found: t

Lookup: Kindly determine if self-splicing fitness (ln) recorded for CACAAGCAAUAUUACGCAAC is above or exactly -2.
Found: f

Lookup: # bool: self-splicing fitness (ln) of ACAGAGCAAUAUUACGUCUG >= -2
Found: t

Lookup: Check this sequence for self-splicing fitness (ln) at or above -2: CAUUAGCAAUAUUACGGUCA
Found: t

----------
experiment: self-splicing fitness, log relative to wild type (ln ratio); higher = more splicing; Tetrahymena group I intron in knt gene, E. coli kanamycin selection, DiMSum; sequences stand for … in CUCUCU…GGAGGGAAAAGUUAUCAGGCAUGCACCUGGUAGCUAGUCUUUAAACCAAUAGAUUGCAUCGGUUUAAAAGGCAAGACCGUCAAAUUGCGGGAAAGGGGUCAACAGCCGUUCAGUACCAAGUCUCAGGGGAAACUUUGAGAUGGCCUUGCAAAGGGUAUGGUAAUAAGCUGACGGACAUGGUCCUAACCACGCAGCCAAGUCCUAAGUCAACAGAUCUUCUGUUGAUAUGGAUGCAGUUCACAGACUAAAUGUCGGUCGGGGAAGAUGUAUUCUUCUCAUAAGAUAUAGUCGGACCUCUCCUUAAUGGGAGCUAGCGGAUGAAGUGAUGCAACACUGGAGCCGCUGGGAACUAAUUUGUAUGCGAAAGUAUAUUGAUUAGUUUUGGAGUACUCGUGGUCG; details: 37 °C
Kind request: treat -1 as inclusive, so self-splicing fitness (ln) at -1 or higher is MET, anything lower is NOT MET.

Take a look at these entries with their results.
residueSequence	labelClass
GACGAGCAAUAUUACGUCCG	NOT MET
GUAUAGCAAUAUUACGCGUC	MET
AAUCAGCAAUAUUACGCUGA	NOT MET
GUUCAGCAAUAUUACGCACG	MET
CGUCAGCAAUAUUACGGCCC	MET

Lookup: // inclusive: self-splicing fitness (ln) at least -1? input: ACGAAGCAAUAUUACGCGGG
Found: MET

Lookup: Given AUAUAGCAAUAUUACGAUAA , state whether its self-splicing fitness (ln) is at least -1.
Found: MET

Lookup: Form field: self-splicing fitness (ln) at least -1? Entry: CUAAAGCAAUAUUACGUCAA
Found: NOT MET

Lookup: Say whether CGCUAGCAAUAUUACGUAUG shows self-splicing fitness (ln) of -1 or more.
Found: MET

Lookup: For this sequence, is measured self-splicing fitness (ln) -1 or higher? GAACAGCAAUAUUACGUCAU
Found: MET
